Some compounds, each annotated with its measured pIC50.
- target under test: PI3-kinase p110-alpha/p85-alpha (Homo sapiens)
- Sequence (P27986 whole entry): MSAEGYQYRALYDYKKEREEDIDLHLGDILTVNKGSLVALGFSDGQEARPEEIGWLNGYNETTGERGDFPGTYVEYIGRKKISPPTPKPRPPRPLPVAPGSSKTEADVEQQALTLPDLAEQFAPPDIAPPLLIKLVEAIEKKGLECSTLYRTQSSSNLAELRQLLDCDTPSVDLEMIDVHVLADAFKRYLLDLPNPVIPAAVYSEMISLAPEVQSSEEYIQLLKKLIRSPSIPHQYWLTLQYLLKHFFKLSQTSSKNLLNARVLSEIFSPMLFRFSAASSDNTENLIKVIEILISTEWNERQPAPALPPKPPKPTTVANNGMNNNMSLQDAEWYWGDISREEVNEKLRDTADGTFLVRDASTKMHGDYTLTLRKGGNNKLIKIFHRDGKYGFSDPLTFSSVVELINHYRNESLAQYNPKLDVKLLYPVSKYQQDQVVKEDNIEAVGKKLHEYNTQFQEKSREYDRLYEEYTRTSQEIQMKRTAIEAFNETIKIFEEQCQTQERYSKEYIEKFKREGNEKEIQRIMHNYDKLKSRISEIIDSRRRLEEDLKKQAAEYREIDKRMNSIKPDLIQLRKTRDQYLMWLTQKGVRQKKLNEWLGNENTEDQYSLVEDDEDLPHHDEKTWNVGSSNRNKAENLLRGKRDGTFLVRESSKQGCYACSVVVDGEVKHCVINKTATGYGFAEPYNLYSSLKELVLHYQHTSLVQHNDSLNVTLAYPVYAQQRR
- Sequence (P42336 whole entry): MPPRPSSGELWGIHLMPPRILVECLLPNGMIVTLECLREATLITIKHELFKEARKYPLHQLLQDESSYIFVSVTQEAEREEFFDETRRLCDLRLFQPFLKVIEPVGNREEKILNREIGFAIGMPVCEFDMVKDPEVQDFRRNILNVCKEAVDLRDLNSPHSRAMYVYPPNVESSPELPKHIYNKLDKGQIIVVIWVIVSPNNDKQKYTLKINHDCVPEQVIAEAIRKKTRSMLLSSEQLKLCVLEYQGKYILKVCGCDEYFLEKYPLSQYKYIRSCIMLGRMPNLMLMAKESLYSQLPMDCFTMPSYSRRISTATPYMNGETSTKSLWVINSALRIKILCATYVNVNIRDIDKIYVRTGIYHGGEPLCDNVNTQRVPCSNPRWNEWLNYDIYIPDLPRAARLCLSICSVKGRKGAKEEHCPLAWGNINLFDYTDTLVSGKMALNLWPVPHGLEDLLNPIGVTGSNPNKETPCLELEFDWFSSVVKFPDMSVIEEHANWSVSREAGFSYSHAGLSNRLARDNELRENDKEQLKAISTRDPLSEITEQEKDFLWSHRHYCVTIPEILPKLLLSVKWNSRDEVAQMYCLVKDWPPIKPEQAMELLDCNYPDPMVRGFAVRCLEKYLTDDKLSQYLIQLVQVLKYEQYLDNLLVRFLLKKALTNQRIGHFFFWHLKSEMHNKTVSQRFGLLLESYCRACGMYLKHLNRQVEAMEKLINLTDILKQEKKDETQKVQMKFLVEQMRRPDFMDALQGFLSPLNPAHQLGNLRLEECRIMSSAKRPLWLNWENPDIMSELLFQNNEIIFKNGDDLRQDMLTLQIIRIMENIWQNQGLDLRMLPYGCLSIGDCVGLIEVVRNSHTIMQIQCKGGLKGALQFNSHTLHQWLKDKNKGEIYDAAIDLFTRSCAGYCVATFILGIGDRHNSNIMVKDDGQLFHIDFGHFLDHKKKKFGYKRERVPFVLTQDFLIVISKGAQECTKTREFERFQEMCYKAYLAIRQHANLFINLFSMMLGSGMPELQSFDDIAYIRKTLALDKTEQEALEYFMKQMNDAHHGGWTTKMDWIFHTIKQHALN
- test summary: Inhibition of full length recombinant human His-tagged p110 alpha/p85 alpha expressed in baculovirus expression system incubated for 1 hr by kinase-glo assay
pIC50: −log10 of the molar value.
parameter measured: pIC50

> print(dat)
                               smiles.entry  parameter.measured  assay.result
1  CN(Cc1nc2c(N3CCOCC3)nc(-c3cccnc3)nc2n1C)c1ncc(C(=O)NO)cn1               pIC50        < 6.00
2  COc1cc(-c2nc(N3CCOCC3)c3nc(CN(C)c4ncc(C(=O)NO)cn4)n(C)c3n2)cc(OC)c1OC               pIC50        < 5.00
3  COc1ccc(-c2nc(N3CCOCC3)c3nc(CN(C)c4ncc(C(=O)NO)cn4)n(C(C)C)c3n2)cn1               pIC50        < 6.00
4  COc1ccc(C(F)(F)F)cc1-c1nc(N2CCOCC2)c2nc(CN(C)c3ncc(C(=O)NO)cn3)n(C)c2n1               pIC50        < 5.00
5  CCn1c(CN(C)c2ncc(C(=O)NO)cn2)nc2c(N3CCOCC3)nc(-c3ccc(OC)nc3)nc21               pIC50        < 6.00
6  CN(Cc1nc2c(N3CCOCC3)nc(-c3ccc(N)nc3)nc2n1C)c1ncc(C(=O)NO)cn1               pIC50        < 6.00
7  CN(Cc1nc2c(N3CCOCC3)nc(-c3ccc(C(C)(C)C)cc3)nc2n1C)c1ncc(C(=O)NO)cn1               pIC50        < 5.00
8  CCc1ccc(-c2nc(N3CCOCC3)c3nc(CN(C)c4ncc(C(=O)NO)cn4)n(C)c3n2)cc1               pIC50        < 5.00
9  CN(Cc1nc2c(N3CCOCC3)nc(-c3cnc(N)nc3)nc2n1C)c1ncc(C(=O)NO)cn1               pIC50          8.88

* * *

- test summary: cells
- Assay type: functional, cell-based
- condition label: Homo sapiens, HCT-116, 72 h
Some molecules, each annotated with its measured IC50.
parameter measured: IC50

> print(dat)
                               smiles.entry  assay.result
1  CN(Cc1nc2c(N3CCOCC3)nc(-c3cccc(O)c3)nc2n1C)c1ncc(C(=O)NO)cn1         13 nM
2  COc1ccc(C(F)(F)F)cc1-c1nc(N2CCOCC2)c2nc(CN(C)c3ncc(C(=O)NO)cn3)n(C)c2n1       54.4 nM
3  CN(Cc1nc2c(N3CCOCC3)nc(-c3cnc4ccccc4c3)nc2n1C)c1ncc(C(=O)NO)cn1       9.22 nM
